// %Inh lookup, one value per entry
- Tested on: DAPK3
- experimental-conditions: concentration: 1 μM, replicates: in singlicate; n = 1
Write the value in % as a bare number.

Asked: Find %Inh (DAPK3) for the entry FC(F)(F)c1ccc(-c2ncn(CCCN3CCOCC3)c2-c2ccncc2)cc1
Given back: 15

Asked: Lab note: need %Inh for COc1cccc(C2=C(Nc3cccc(C(=O)O)c3)C(=O)NC2=O)c1 on DAPK3, anyone have it?
Given back: 0

Asked: Could you share what %Inh was measured for CCn1c(-c2nonc2N)nc2ccccc21 , tested on DAPK3?;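 also: KINOMEscan kinase panel screen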
Given back: 0

Asked: Quick check: %Inh on DAPK3, item Cc1ccc(Oc2ccc(Nc3ncnc4cc[nH]c34)cc2C)cn1 ?
Given back: 0
